# Test system: P388 leukemia ip, CD2F1 mice, survival T/C
# run_description: NCI In Vivo Anticancer Drug Screen. Data for tumor model P388 Leukemia (intraperitoneal) in CD2F1 (CDF1) mice
# experimental_setup: endpoint: median survival time; dose: 200.0 mg/kg/injection; schedule: Q01DX005 (ip); vehicle: saline with Tween-80; higher = longer survival
Inconclusive results and toxic doses are left out.
Measured T/C, listed per entry for reference.
value_kind: T/C

compound="O=C(O)CCC(=O)C(Cc1ccccc1)NC(=O)c1ccccc1 (centres undefined)" result="100 % of control"
compound="Cc1ccccc1NP1(=O)OCCCN1Cc1ccccc1Cl (centres undefined)" result="93 % of control"
compound="O=C1CC2C(=O)N(Cc3ccccc3)C(=O)C2C(=O)N1 (centres undefined)" result="92 % of control"
compound=COc1ccc2nc(C#N)ccc2c1 result="95 % of control"
